Let's look at some binders and their measured second-order rate constant of inhibition.
# STUDY SYSTEM: thrombin (UniProt P00734 328-622)
# ASSAY TEXT: pseudo-first-order inhibition kinetics, residual chromogenic activity
Quote the value and follow it with the unit of measurement.

Completed entries (count: 2):
FL α1AT Pitts C232S P2R (other, E. coli, purified; also called P2.F10; P2.G8) SDPQGDAAQKTDTSHHDQDHPTFNKITPNLAEFAFSLYRQLAHQSNSTNIFFSPVSIATAFAMLSLGTKADTHDEILEGLNFNLTEIPEAQIHEGFQELLRTLNQPDSQLQLTTGNGLFLSEGLKLVDKFLEDVKKLYHSEAFTVNFGDTEEAKKQINDYVEKGTQGKIVDLVKELDRDTVFALVNYIFFKGKWERPFEVKDTEEEDFHVDQVTTVKVPMMKRLGMFNIQHSKKLSSWVLLMKYLGNATAIFFLPDEGKLQHLENELTHDIITKFLENEDRRSASLHLPKLSITGTYDLKSVLGQLGITKVFSNGADLSGVTEEAPLKLSKAVHKAVLTIDEKGTEAAGAMFLEAIRRSIPPEVKFNKPFVFLMIEQNTKSPLFMGKVVNPTQK | 42 M⁻¹ s⁻¹
FL α1AT Pitts C232S P1′R (other, E. coli, purified; also called P1′.A11) SDPQGDAAQKTDTSHHDQDHPTFNKITPNLAEFAFSLYRQLAHQSNSTNIFFSPVSIATAFAMLSLGTKADTHDEILEGLNFNLTEIPEAQIHEGFQELLRTLNQPDSQLQLTTGNGLFLSEGLKLVDKFLEDVKKLYHSEAFTVNFGDTEEAKKQINDYVEKGTQGKIVDLVKELDRDTVFALVNYIFFKGKWERPFEVKDTEEEDFHVDQVTTVKVPMMKRLGMFNIQHSKKLSSWVLLMKYLGNATAIFFLPDEGKLQHLENELTHDIITKFLENEDRRSASLHLPKLSITGTYDLKSVLGQLGITKVFSNGADLSGVTEEAPLKLSKAVHKAVLTIDEKGTEAAGAMFLEAIPRRIPPEVKFNKPFVFLMIEQNTKSPLFMGKVVNPTQK | 680 M⁻¹ s⁻¹

Consider now this further binder.
Requested field: second-order rate constant of inhibition. Item: FL α1AT Pitts C232S P2TP1′Y (other, E. coli, purified; also called 3.A10) SDPQGDAAQKTDTSHHDQDHPTFNKITPNLAEFAFSLYRQLAHQSNSTNIFFSPVSIATAFAMLSLGTKADTHDEILEGLNFNLTEIPEAQIHEGFQELLRTLNQPDSQLQLTTGNGLFLSEGLKLVDKFLEDVKKLYHSEAFTVNFGDTEEAKKQINDYVEKGTQGKIVDLVKELDRDTVFALVNYIFFKGKWERPFEVKDTEEEDFHVDQVTTVKVPMMKRLGMFNIQHSKKLSSWVLLMKYLGNATAIFFLPDEGKLQHLENELTHDIITKFLENEDRRSASLHLPKLSITGTYDLKSVLGQLGITKVFSNGADLSGVTEEAPLKLSKAVHKAVLTIDEKGTEAAGAMFLEAITRYIPPEVKFNKPFVFLMIEQNTKSPLFMGKVVNPTQK
23 M⁻¹ s⁻¹

The reported measurements were obtained from patent US20160311887A1.
